assay: NCI Yeast Anticancer Drug Screen. Data for the sgs1 mgt1 strain (AID 161);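 note: 0% = growth of cultures given vehicle only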; conditions: S. cerevisiae sgs1 mgt1 strain, at 50.0 µM, hits give high values
About 79,000 compounds went through this panel and 15% of them were active in at least one assay; those are over-represented in the sample as a whole.
readout.type: growth inhibition (%)

compound	readout.type	value.units	number
c1ccc2[nH]c3c(N=NC4=NCCN4)c4ccccc4c-3nc2c1	growth inhibition	%	10.1
CC(C)Cn1cnc2c(SCc3ccccn3)nc(N)nc21	growth inhibition	%	-10.2
Nc1nc2c(ncn2Cc2ccc(Cl)c(Cl)c2)c(=O)[nH]1	growth inhibition	%	-1.65
O=C1C=C(Nc2nc(C(=O)O)cc(=O)[nH]2)c2ccccc2C1=O	growth inhibition	%	-29.3
Nn1cnc2nccnc2c1=O	growth inhibition	%	-10.7
NCCCNC1CCCCC1	growth inhibition	%	2.55
Brc1cccc(-c2nnc(-c3ccc4ccccc4c3)o2)c1	growth inhibition	%	6
CN(c1cn(C2CC[C@@H](CO)O2)c(=O)[nH]c1=O)C1CCCCC1 (stereo not given in full)	growth inhibition	%	-58.4
COc1ccc2c(c1)nc1n2C(N)=Nc2ccccc2S1	growth inhibition	%	36.2
NNC(=O)CC(=O)Nc1ccc(S(=O)(=O)c2ccc(NC(=O)CC(=O)NN)cc2)cc1	growth inhibition	%	18.6
